System: prostate cancer cell lines (e.g. DU145/TXR)
METHOD_NOTES: Cell based assay, cell viability (CellTiter-Glo), prostate cancer cell lines
MEASUREMENT_SETUP: Homo sapiens, DU-145, DU145/TXR cells, 72 hours treatment, final concentration 0 to 2 μM, read-out: IC50, prostate cancer cell line DU145/TXR

>  <COMPOUND>
CC(=O)c1c(S/C=C\C(=O)O)[nH]c2c(Br)ccc(Cl)c2c1=O [Compound 67]

>  <TARGET_SYSTEM>
prostate cancer cell lines (e.g. DU145/TXR)

>  <UNITS_TEXT>
nM

>  <LT_GT_EQ>
>

>  <IC50>
2000

$$$$
>  <COMPOUND>
CC(=O)c1c([S+]([O-])Cc2ccc(N)nc2)[nH]c2c(Br)ccc(Cl)c2c1=O (stereo not drawn) [Compound 100]

>  <TARGET_SYSTEM>
prostate cancer cell lines (e.g. DU145/TXR)

>  <UNITS_TEXT>
nM

>  <LT_GT_EQ>
>

>  <IC50>
2000

$$$$
>  <COMPOUND>
COc1cccc2[nH]c(SCc3ccc(S(F)(F)(F)(F)F)cc3)c(C(C)=O)c(=O)c12 [Compound 92]

>  <TARGET_SYSTEM>
prostate cancer cell lines (e.g. DU145/TXR)

>  <UNITS_TEXT>
nM

>  <LT_GT_EQ>
>

>  <IC50>
2000

$$$$
>  <COMPOUND>
CCS(=O)(=O)n1c([S+](C)[O-])c(C(C)=O)c(=O)c2c(Cl)ccc(Br)c21 (stereo not drawn) [Compound 39]

>  <TARGET_SYSTEM>
prostate cancer cell lines (e.g. DU145/TXR)

>  <UNITS_TEXT>
nM

>  <LT_GT_EQ>
>

>  <IC50>
2000

$$$$
>  <COMPOUND>
CC(=O)c1c([S+]([O-])Cc2ccc(C(F)(F)F)nc2C)[nH]c2c(Br)ccc(Cl)c2c1=O (stereo not drawn) [Compound 102]

>  <TARGET_SYSTEM>
prostate cancer cell lines (e.g. DU145/TXR)

>  <UNITS_TEXT>
nM

>  <LT_GT_EQ>
=

>  <IC50>
1120

$$$$
>  <COMPOUND>
CC(=O)c1c([S+](C)[O-])n(Cc2ccc(F)c(Cl)c2)c2c(Br)ccc(Cl)c2c1=O (stereo not drawn) [Compound 22]

>  <TARGET_SYSTEM>
prostate cancer cell lines (e.g. DU145/TXR)

>  <UNITS_TEXT>
nM

>  <LT_GT_EQ>
>

>  <IC50>
2000

$$$$
>  <COMPOUND>
CC(=O)c1c([S+]([O-])Cc2ccc(SC(F)(F)F)cc2)[nH]c2c(Br)ccc(Cl)c2c1=O (stereo not drawn) [Compound 56]

>  <TARGET_SYSTEM>
prostate cancer cell lines (e.g. DU145/TXR)

>  <UNITS_TEXT>
nM

>  <LT_GT_EQ>
=

>  <IC50>
860

$$$$
>  <COMPOUND>
CC(=O)c1c([S+]([O-])Cc2ccc(-n3cccn3)nc2)[nH]c2c(Br)ccc(Cl)c2c1=O (stereo not drawn) [Compound 99]

>  <TARGET_SYSTEM>
prostate cancer cell lines (e.g. DU145/TXR)

>  <UNITS_TEXT>
nM

>  <LT_GT_EQ>
=

>  <IC50>
1060

$$$$
>  <COMPOUND>
CC(=O)c1c([S+]([O-])CC#N)[nH]c2c(Br)ccc(Cl)c2c1=O (stereo not drawn) [Compound 65]

>  <TARGET_SYSTEM>
prostate cancer cell lines (e.g. DU145/TXR)

>  <UNITS_TEXT>
nM

>  <LT_GT_EQ>
>

>  <IC50>
2000

$$$$
>  <COMPOUND>
CC(=O)c1c([S+]([O-])Cc2ccc(C#N)s2)[nH]c2c(Br)ccc(Cl)c2c1=O (stereo not drawn) [Compound 98]

>  <TARGET_SYSTEM>
prostate cancer cell lines (e.g. DU145/TXR)

>  <UNITS_TEXT>
nM

>  <LT_GT_EQ>
=

>  <IC50>
1910

$$$$
>  <COMPOUND>
CC(C)C(=O)c1c([S+]([O-])Cc2ccc(SC(F)(F)F)cc2)[nH]c2c(F)ccc(F)c2c1=O (stereo not drawn) [Compound 85]

>  <TARGET_SYSTEM>
prostate cancer cell lines (e.g. DU145/TXR)

>  <UNITS_TEXT>
nM

>  <LT_GT_EQ>
>

>  <IC50>
2000

$$$$
>  <COMPOUND>
CC(=O)c1c([S+]([O-])Cc2ccc(Cl)nc2)[nH]c2c(Br)ccc(Cl)c2c1=O (stereo not drawn) [Compound 104]

>  <TARGET_SYSTEM>
prostate cancer cell lines (e.g. DU145/TXR)

>  <UNITS_TEXT>
nM

>  <LT_GT_EQ>
=

>  <IC50>
1230

$$$$
>  <COMPOUND>
CC(=O)c1c([S+]([O-])Cc2ccc(I)cc2)[nH]c2c(Cl)ccc(Cl)c2c1=O (stereo not drawn) [Compound 83]

>  <TARGET_SYSTEM>
prostate cancer cell lines (e.g. DU145/TXR)

>  <UNITS_TEXT>
nM

>  <LT_GT_EQ>
=

>  <IC50>
1050

$$$$
>  <COMPOUND>
CC(=O)c1c(S)[nH]c2c(Br)ccc(Cl)c2c1=O [Compound 62]

>  <TARGET_SYSTEM>
prostate cancer cell lines (e.g. DU145/TXR)

>  <UNITS_TEXT>
nM

>  <LT_GT_EQ>
>

>  <IC50>
2000

$$$$
>  <COMPOUND>
CC(=O)c1c([S+]([O-])Cc2ccc(C(F)(F)F)cc2)[nH]c2c(Br)ccc(Cl)c2c1=O (stereo not drawn) [Compound 70]

>  <TARGET_SYSTEM>
prostate cancer cell lines (e.g. DU145/TXR)

>  <UNITS_TEXT>
nM

>  <LT_GT_EQ>
=

>  <IC50>
1190

$$$$
>  <COMPOUND>
CC(=O)c1c([S+]([O-])Cc2ccccc2)n(C(=O)c2ccc(Br)cc2)c2c(Br)ccc(Cl)c2c1=O (stereo not drawn) [Compound 20]

>  <TARGET_SYSTEM>
prostate cancer cell lines (e.g. DU145/TXR)

>  <UNITS_TEXT>
nM

>  <LT_GT_EQ>
>

>  <IC50>
2000

$$$$
>  <COMPOUND>
CC(=O)c1c(S(C)(=O)=O)n(S(=O)(=O)c2ccc(C(C)(C)C)cc2)c2c(Br)ccc(Cl)c2c1=O [Compound 41]

>  <TARGET_SYSTEM>
prostate cancer cell lines (e.g. DU145/TXR)

>  <UNITS_TEXT>
nM

>  <LT_GT_EQ>
>

>  <IC50>
2000

$$$$
>  <COMPOUND>
CC(=O)c1c(Sc2ccc(Br)cc2)[nH]c2c(Br)ccc(Cl)c2c1=O [Compound 16]

>  <TARGET_SYSTEM>
prostate cancer cell lines (e.g. DU145/TXR)

>  <UNITS_TEXT>
nM

>  <LT_GT_EQ>
>

>  <IC50>
2000

$$$$
>  <COMPOUND>
CC(=O)c1c(SCc2ccccc2)nc2c(Br)ccc(Cl)c2c1O [Compound 52]

>  <TARGET_SYSTEM>
prostate cancer cell lines (e.g. DU145/TXR)

>  <UNITS_TEXT>
nM

>  <LT_GT_EQ>
>

>  <IC50>
2000

$$$$
>  <COMPOUND>
CC(=O)c1c([S+]([O-])Cc2c(F)cccc2Cl)[nH]c2c(Br)ccc(Cl)c2c1=O (stereo not drawn) [Compound 74]

>  <TARGET_SYSTEM>
prostate cancer cell lines (e.g. DU145/TXR)

>  <UNITS_TEXT>
nM

>  <LT_GT_EQ>
=

>  <IC50>
1460

$$$$
>  <COMPOUND>
CC(=O)c1c(SCc2cc(F)cc(F)c2)[nH]c2c(Br)ccc(Cl)c2c1=O [Compound 45]

>  <TARGET_SYSTEM>
prostate cancer cell lines (e.g. DU145/TXR)

>  <UNITS_TEXT>
nM

>  <LT_GT_EQ>
>

>  <IC50>
2000

$$$$
>  <COMPOUND>
CC(=O)c1c(SCC#N)[nH]c2c(Br)ccc(Cl)c2c1=O [Compound 66]

>  <TARGET_SYSTEM>
prostate cancer cell lines (e.g. DU145/TXR)

>  <UNITS_TEXT>
nM

>  <LT_GT_EQ>
>

>  <IC50>
2000

$$$$
>  <COMPOUND>
CC(=O)c1c(SCc2ccc(F)c(Cl)c2)[nH]c2c(Br)ccc(Cl)c2c1=O [Compound 30]

>  <TARGET_SYSTEM>
prostate cancer cell lines (e.g. DU145/TXR)

>  <UNITS_TEXT>
nM

>  <LT_GT_EQ>
>

>  <IC50>
2000

$$$$
>  <COMPOUND>
Cc1cc(C[S+]([O-])c2[nH]c3c(Br)ccc(Cl)c3c(=O)c2C(=O)C2CC2)no1 (stereo not drawn) [Compound 96]

>  <TARGET_SYSTEM>
prostate cancer cell lines (e.g. DU145/TXR)

>  <UNITS_TEXT>
nM

>  <LT_GT_EQ>
=

>  <IC50>
1770

$$$$
>  <COMPOUND>
Cc1cc(C[S+]([O-])c2[nH]c3c(Cl)ccc(Cl)c3c(=O)c2C(=O)c2ccccc2)no1 (stereo not drawn) [Compound 88]

>  <TARGET_SYSTEM>
prostate cancer cell lines (e.g. DU145/TXR)

>  <UNITS_TEXT>
nM

>  <LT_GT_EQ>
>

>  <IC50>
2000

$$$$
>  <COMPOUND>
Cc1cc(C[S+]([O-])c2[nH]c3c(Br)ccc(Cl)c3c(=O)c2C(=O)C(C)C)no1 (stereo not drawn) [Compound 95]

>  <TARGET_SYSTEM>
prostate cancer cell lines (e.g. DU145/TXR)

>  <UNITS_TEXT>
nM

>  <LT_GT_EQ>
=

>  <IC50>
940

$$$$
>  <COMPOUND>
CC(=O)c1c(SCc2ccccc2)[nH]c2c(Br)ccc(Cl)c2c1=O [Compound 3]

>  <TARGET_SYSTEM>
prostate cancer cell lines (e.g. DU145/TXR)

>  <UNITS_TEXT>
nM

>  <LT_GT_EQ>
>

>  <IC50>
2000

$$$$
>  <COMPOUND>
CSc1c(C(C)=O)c(=O)c2c(Cl)ccc(Br)c2n1C [Compound 5]

>  <TARGET_SYSTEM>
prostate cancer cell lines (e.g. DU145/TXR)

>  <UNITS_TEXT>
nM

>  <LT_GT_EQ>
>

>  <IC50>
2000

$$$$
>  <COMPOUND>
O=C(c1c([S+]([O-])Cc2ccc(SC(F)(F)F)cc2)[nH]c2c(Br)ccc(Cl)c2c1=O)C1CC1 (stereo not drawn) [Compound 101]

>  <TARGET_SYSTEM>
prostate cancer cell lines (e.g. DU145/TXR)

>  <UNITS_TEXT>
nM

>  <LT_GT_EQ>
=

>  <IC50>
1420

$$$$
>  <COMPOUND>
CC(=O)c1c([S+]([O-])Cc2cccc(F)c2)[nH]c2c(Br)ccc(Cl)c2c1=O (stereo not drawn) [Compound 50]

>  <TARGET_SYSTEM>
prostate cancer cell lines (e.g. DU145/TXR)

>  <UNITS_TEXT>
nM

>  <LT_GT_EQ>
=

>  <IC50>
1280

$$$$
